meta.source: paper PMC5540273

system: PRKD1; conditions: concentration: 1 μM, replicates: in singlicate; n = 1;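 further: KINOMEscan kinase panel screen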
measurement-kind: %Inh (%)
Answer in %, number only, no unit symbol.

[in] Short answer please: %Inh, PRKD1, entry CC(C)c1nc(-c2cccc(NS(=O)(=O)c3c(F)cccc3F)c2F)c(-c2ccnc(Nc3ccc(N4CCOCC4)nc3)n2)s1
[out] 93.8

[in] Short answer please: %Inh, PRKD1, entry COc1cccc(-c2ccc3c(NC(=O)C4CC4)n[nH]c3n2)c1
[out] 0

[in] Short answer please: %Inh, PRKD1, entry Cc1occc1-c1ncc(OC[C@@H](N)Cc2c[nH]c3ccccc23)cc1-c1ccc2[nH]nc(C)c2c1.O=C(O)C(F)(F)F
[out] 90

[in] Short answer please: %Inh, PRKD1, entry COc1cc(Nc2nccc(N3CCC(NC(=O)Nc4cccc(C(C)=O)c4)C3)n2)cc(OC)c1OC (stereo not drawn)
[out] 0

[in] Short answer please: %Inh, PRKD1, entry Cl.c1ccc(-c2ccc3c(Nc4ccc5[nH]ccc5c4)ccnc3c2)nc1
[out] 1

[in] Short answer please: %Inh, PRKD1, entry COc1cccc(C2=C(Nc3ccc(Cl)c(C(=O)O)c3)C(=O)NC2=O)c1
[out] 0
